Documented Activity across a set of molecules
Test system: Rattus norvegicus
Experiment: Inhibition of pentagastrin-stimulated acid secretion in perfused Ghosh Schild rat stomach at 1 umol/kg, intraduodenal
Format: functional
Parameters: scale not given: the % may be the effect or the level left
Report only the number, with the unit % understood.

Below are worked cases with known answers.
>>> df
                                   molecule  assay_endpoint  recorded_measurement
0  CCOc1ccc(NC(=O)c2cn3c(C)c(C)nc3c3c2CCC(c2ccccc2)O3)cc1 (racemic)        Activity                    33
1  Cc1nc2c3c(c(C(=O)NC4CC4)cn2c1C)CCC(c1ccccc1)O3 (racemic)        Activity                    82
2  CC#CC(=O)c1c(C)nc2c3c(c(C(=O)N(C)C)cn12)CCC(c1ccccc1)O3 (racemic)        Activity                    43
3  Cc1nc2c3c(c(C(=O)N(C)C)cn2c1C(=O)N(C)C)CCC(c1ccccc1)O3 (racemic)        Activity                    26
4  CC#CC(O)c1c(C)nc2c3c(c(C(=O)N(C)C)cn12)CCC(c1ccccc1)O3 (racemic)        Activity                    22

Now for a further molecule.
Need Activity, item Cc1nc2c3c(c(C(=O)NC4CCC4)cn2c1C)CCC(c1ccccc1)O3 (racemic)
26
